B1: RHOBTB3 (parent)
chain: KVVEAHKIVLCAVSHVFMLLFNVK

Variants of: B1
procedure details: protein stability index of a GFP-peptide fusion (GPS, HEK-293T) (PSI 1-6); higher = more stable;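 note: lentivirally expressed fusions sorted by FACS into six bins by GFP to DsRed ratio, PSI derived from sequencing read proportions per bin multiplied by bin number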
condition: c terminus: a fixed tail appended
Items are presented alongside their recorded protein stability index.
The reply should be a number, written without any unit.

L10R    1.64
F17M    2.78
H6M    1.63
L19I    3.67
V3Q    3.48

Problem: Recall and state the measured protein stability index for `M18L` .
Result: 3.85

Problem: Item `L20Q` : provide protein stability index
Result: 2.37

Problem: Tell us which protein stability index value is on record for `I8K`
Result: 2.59

Problem: State, in one line, measured protein stability index of `E4L`
Result: 2.08

Problem: Annotate the variant `L20D` with its measured protein stability index.
Result: 3.54
